Test system: CbCln3 Δex7/8/Δex7/8 GFP-LC3 cerebellar neuronal cells
MEASUREMENT PROTOCOL: fraction of GFP-LC3-positive cells (≥5 vesicles/cell); higher = more autophagosome accumulation
The full ranking holds about 1,700 compounds; the median of “fraction of GFP-LC3-positive cells (≥5 vesicles/cell)” is about 0.43, and the highest 2% start at about 0.81. This is one part of a sample in which the highest values are shown more often than they occur.
Binary call on fraction of GFP-LC3-positive cells: TRUE from 0.5 upward, FALSE beneath that.

COMPOUND	DISCRETE LABEL
N#CC(C#N)=Cc1ccc(O)cc1 [Tyrphostin-8]	FALSE
CC(=O)C(C)O.CC(Cc1ccccc1)NCCC(c1ccccc1)c1ccccc1 (centres undefined) [Prenylamine lactate]	FALSE
CO/C1=C\C(C)=C\[C@@H](C)[C@@H](O)[C@@H](C)C/C(C)=C/C=C/[C@H](OC)[C@@H]([C@@H](C)[C@@H](O)[C@H](C)[C@@]2(O)C[C@@H](O)[C@H](C)[C@@H](C(C)C)O2)OC1=O [bafilomycin A1]	TRUE
CCNC(=O)[C@H]1O[C@@H](n2cnc3c(N)ncnc32)C(O)[C@H]1O (some centres undefined) [5'-N-Ethylcarboxamidoadenosine (NECA)]	FALSE

IN: Reported fraction of GFP-LC3-positive cells reaches at least 0.5 for OC(c1ccccc1)(c1ccccc1)C1CCNCC1 [Azacyclonol] ?
OUT: FALSE

IN: Reported fraction of GFP-LC3-positive cells reaches at least 0.5 for CC(=O)c1c(O)c(C)c(O)c(Cc2c(O)c3c(c(C(=O)/C=C/c4ccccc4)c2O)OC(C)(C)C=C3)c1O [Rottlerin] ?
OUT: TRUE

IN: Reported fraction of GFP-LC3-positive cells reaches at least 0.5 for CCCC(C)(COC(N)=O)COC(=O)NC(C)C (centres undefined) [Carisoprodol] ?
OUT: FALSE

IN: Reported fraction of GFP-LC3-positive cells reaches at least 0.5 for C[C@@H]1CC([C@H](O)CC2CC(=O)NC(=O)C2)C(=O)[C@@H](C)C1 (some centres undefined) [cycloheximide] ?
OUT: FALSE

IN: Reported fraction of GFP-LC3-positive cells reaches at least 0.5 for C[C@H]1O[C@@H](OC2CC[C@]3(C=O)[C@H]4CC[C@]5(C)[C@@H](C6=CC(=O)OC6)CC[C@]5(O)[C@@H]4CC[C@]3(O)C2)C[C@H](O)[C@@H]1O (some centres undefined) [Helveticoside] ?
OUT: FALSE

* * *

Test system: CbCln3 Δex7/8/Δex7/8 GFP-LC3 cerebellar neuronal cells
MEASUREMENT PROTOCOL: fraction of GFP-LC3-positive cells (≥5 vesicles/cell); higher = more autophagosome accumulation
Whole data set: some 1,700 compounds, median “fraction of GFP-LC3-positive cells (≥5 vesicles/cell)” near 0.43, cut for the highest 2% near 0.81. This excerpt belongs to a sample that is enriched for the highest values.
PROPERTY NAME: fraction of GFP-LC3-positive cells
Field format: numeric only.

MOLECULE	fraction of GFP-LC3-positive cells
CCCCC/C=C\C/C=C\C/C=C\C/C=C\CCCC(=O)NCC(=O)O	0.263
CCCCc1ccc(C(=O)O)nc1	0.408
CC(C)c1c(CN(C)C(C)Cc2ccccc2)n(C)n(-c2ccccc2)c1=O (stereo not given)	0.405
CC(C)NCC(O)c1ccc(N)c(C#N)c1 (stereo not given)	0.462
Cl.Cl.Fc1ccc(C(OCCN2CCN(CCCc3ccccc3)CC2)c2ccc(F)cc2)cc1	0.168

IN: Identify the measured fraction of GFP-LC3-positive cells of CC[N+]1(C)CCCC(OC(=O)C(O)(c2ccccc2)c2ccccc2)C1.[Br-] (stereo not given) [Pipenzolate bromide] for CbCln3 Δex7/8/Δex7/8 GFP-LC3 cerebellar neuronal cells.
OUT: 0.4

IN: Identify the measured fraction of GFP-LC3-positive cells of CC(C)(C)c1cc(C=C(C#N)C#N)cc(C(C)(C)C)c1O [tyrphostin 9] for CbCln3 Δex7/8/Δex7/8 GFP-LC3 cerebellar neuronal cells.
OUT: 0.882

IN: Identify the measured fraction of GFP-LC3-positive cells of `O=C(CCCN1CCC(n2c(=O)[nH]c3ccccc32)CC1)c1ccc(F)cc1` for CbCln3 Δex7/8/Δex7/8 GFP-LC3 cerebellar neuronal cells.
OUT: 0.358
